quantity: melting point

Entry CC(=O)ON(C)C(=O)CCc1cc(-c2ccc(Cl)cc2)n(-c2nc3c(Cl)cccc3s2)n1 ; melting point = 159 to 160 °C

Entry Cc1nc2ccc3c(c2s1)C(=O)CC3 ; melting point = 163 to 165 °C

Entry O=C(NCS(=O)(=O)c1ccccc1)c1cc(Cl)nc(Cl)c1 ; melting point = 209 to 210 °C

Entry CCCNc1c2ccccc2nc2c1c(C)nn2-c1ccccn1 ; melting point = 121 to 122 °C

Entry COCCn1cc(C(=O)NCc2ccc(Cl)cc2)c(=O)c2cc(CN(C)C[C@@H](O)c3ccccc3)sc21 ; melting point = 105 to 106 °C

Entry Cn1cnc2nc(-c3ccc(Cl)cc3)nn2c1=S ; melting point = 283 to 285 °C

Entry O=[N+]([O-])c1ccc(Br)c2nsnc12 ; melting point = 216 to 218 °C

Entry Cc1ncncc1C(=O)Nc1cnc(-n2nc(C(F)(F)F)cc2C2CC2)nc1 ; melting point = 201 to 203 °C

Entry CC(C)(C)c1cc(-c2nn(CC(F)(F)F)c3ncccc23)cc(C(C)(C)C)c1O ; melting point = 104 to 106 °C

Entry CN(C)c1c(-c2ccc(Cl)cc2)sc2ccccc12 ; melting point = 81 to 83 °C

Entry O=C(c1cccnc1)N1CCC(c2ccccc2)=N1 ; melting point = 87 to 89 °C

Entry NC(=O)CC1C=CC=CC1(F)F (stereo unspecified) ; melting point = 113 to 114 °C

Entry CCOC(=O)C(CCO)=C(c1cccc(OC)c1)c1cccc(OC)c1 ; melting point = 102 to 104 °C

Entry COC(=O)[C@H](Cc1ccccc1)NC(=O)N(Cc1ccccc1)NC(=O)OC(C)(C)C ; melting point = 71 to 73 °C

Entry CCc1nc2ccc(N=C=S)cc2s1 ; melting point = 69 to 73 °C

Entry CSc1ccc(C(=O)COc2ccc(F)cc2F)cc1 ; melting point = 70 to 71 °C

Entry COc1cccc(CC(NC(=O)CCl)c2ccccc2)c1 (stereo unspecified) ; melting point = 104 to 105 °C

Entry CC(=O)NC[C@H]1CN(c2cc(F)c(N3CCN(C(=O)COCc4ccccc4)CC3)c(F)c2)C(=O)O1 ; melting point = 172 to 173 °C

Entry CC(C)(C)OC(=O)C=C(c1ccc(C#N)cc1)n1ccnc1 ; melting point = 151 to 153 °C

Entry CCCn1c(=O)n(CC(C)=O)c(=O)c2[nH]c(C34CC5CC(CC3C5)C4)nc21 ; melting point = 181 to 184 °C

Entry CC(C)(C)OC(=O)NC1CCC(C(=O)N2CCC(c3[nH]nc4c3C(=O)c3c(NC(=O)NN5CCOCC5)cccc3-4)CC2)CC1 (stereo unspecified) ; melting point = 178 to 180 °C

Entry Cc1cc(SC(C)CC(Sc2cc(C)c(O)c(C(C)(C)C)c2)Sc2cc(C)c(O)c(C(C)(C)C)c2)cc(C(C)(C)C)c1O (stereo unspecified) ; melting point = 65 to 69 °C

Entry Cc1c(-c2ccncc2)[nH]c(-c2ccncc2)c1C(=O)OC(C)(C)C ; melting point = 265 to 267 °C

Entry CSc1sc(-c2ccccn2)c2c1C(=O)CC(C)(C)C2 ; melting point = 217 to 220 °C

Entry CCN1CCc2nc(Nc3cc(-c4cc(F)cc(C5NCCc6c5sc5c6CC(C)(C)C5)c4CO)cn(C)c3=O)ccc2C1 (stereo unspecified) ; melting point = 134 to 135 °C

Entry N#Cc1cc(Cn2cncn2)ccc1-c1ccc(O)c(Cl)c1 ; melting point = 195 to 197 °C

Entry CS(=O)(=O)CCC(C#N)CC#N (stereo unspecified) ; melting point = 123 to 125 °C

Entry O=c1[nH]nc(-c2ccc3ccccc3c2)o1 ; melting point = 197 to 199 °C

Entry O=S1C(c2cccc(-c3ccc(O)c(C45CC6CC(CC(C6)C4)C5)c3)n2)=CN=C1N1CCOCC1 (stereo unspecified) ; melting point = 339 to 343 °C

Entry C=CCc1c(C)nc(C)c(C(=O)Nc2c(CC)cc(C)cc2CC)c1Cl ; melting point = 192 to 194 °C

Entry CNC(=S)Nc1ccc(C)cn1 ; melting point = 161 °C

Entry O=[N+]([O-])c1cccnc1Sc1ncccn1 ; melting point = 122 to 124 °C

Entry Cc1cccc(COc2cccc(OCc3ccc4ccc(Cl)cc4n3)c2)c1C(=O)O ; melting point = 188 to 193 °C

Entry CCc1c(CO)[nH]c(=O)c(I)c1Oc1cc(C)cc(C)c1 ; melting point = 70 °C

Entry CC(N=c1[nH]c(-c2ccccc2)c(-c2ccnc(Nc3ccccc3)n2)s1)N(C)C (stereo unspecified) ; melting point = 196 to 197 °C

Entry O=c1ccoc2ccc(F)cc12 ; melting point = 165 to 168 °C

Entry COc1ccc(-c2cc3c(s2)c(=O)c(S(C)=O)cn3C)cc1 (stereo unspecified) ; melting point = 262 to 264 °C

Entry COCOc1ccc(Cc2cccc(-c3c(O)c4ccc(Cl)cc4[nH]c3=O)c2)cc1 ; melting point = 261 to 264 °C

Entry CCCN(CCC)CCc1ccc(OC)c(C(=O)O)c1OC ; melting point = 174 to 177 °C

Entry CCc1nc2cc([N+](=O)[O-])ccc2o1 ; melting point = 88 to 90 °C

Entry CCOc1cccc(C2C(C(=O)OC)=C(C)NC(C)=C2C(=O)OC)c1OCC(=O)NCCO[N+](=O)[O-] ; melting point = 159 to 160 °C

Reference for the values: a melting point compilation (Tetko et al.; mined from patent text by program, amines drawn as free bases though some values may be those of a salt)
